Test system: EKVX NSCLC
TEST DESCRIPTION: NCI tumour cell line growth inhibition, 48 h
RECORDED METRIC: TGI

Guide cases for TGI, answers given:
CC1OC(CC2C=CCc3c(O)c4c(c(O)c32)C(=O)c2ccccc2C4=O)CC(NC(=O)C(F)(F)F)C1O (stereo not given)
25.7 µM
O=C(COc1cccc(/C=C2\Oc3ccc4ccccc4c3C2=O)c1)c1ccc([N+](=O)[O-])cc1
> 100 µM
COc1ccc(NC(=O)NNS(=O)(=O)c2ccc(C)cc2)cc1
> 100 µM

I have this compound here, `CC(=O)c1cccc(Nc2nc3ccccc3c3[nH]c4ccccc4c23)c1` , and I need its recorded TGI.
21.4 µM

Entry `C/C=C(\C)C(=O)O[C@@H]1C=CC(=O)O[C@H]1CNC(=O)[C@H](C)O` please
49.5 µM

====

Tested on: UACC-257 melanoma
TEST DESCRIPTION: NCI tumour cell line growth inhibition, 48 h
RECORDED METRIC: TGI

CC(C)(C)OC(=O)C1/C(=C/CBr)CN1C(=O)OC(C)(C)C (stereo unspecified)
32.3 µM
COc1ccc(N[C@@H]2c3cc4c(cc3C(c3cc(OC)c(O)c(OC)c3)[C@H]3C(=O)OCC32)OCO4)cc1OC (stereo partly specified)
38.5 µM
COc1ccc(NC(=O)c2cccc(C3CCc4c(cc(OC)c(OC)c4OC)O3)c2)cc1 (stereo unspecified)
> 100 µM

Lab note: need TGI with UACC-257 melanoma for entry `NC(=O)c1ncn2c(=O)n(CCCl)nnc12` , please look it up.
391 µM

`O=C(O)c1[nH]c2c([N+](=O)[O-])cc([N+](=O)[O-])cc2c1C(=O)O` ?
> 100 µM

Next entry: `NCCCNc1nc2ccccc2c2c(=O)c3cc(F)cc(Cl)c3sc12`
11.2 µM

====

Tested on: 786-0 renal
TEST DESCRIPTION: NCI tumour cell line growth inhibition, 48 h
RECORDED METRIC: GI50

CCOC(=O)c1ccc(NC(=O)c2cccc(NC3=C(Cl)C(=O)N(Cc4ccccc4)C3=O)c2)cc1
> 100 µM
Cc1ccc(NC2=CC(=O)C(=O)c3ccccc32)cc1
15 µM
CCOC(=O)c1cc(C(=O)c2cc(OC)c(OC)c(OC)c2)n2ccc(-c3cc[n+](CC(=O)c4cc(OC)c(OC)c(OC)c4)cc3)cc12
1.75 µM
COc1cccc(-c2nn(-c3ccccc3)cc2-c2ccnc(NCCCNS(=O)(=O)c3ccc(C(F)(F)F)cc3)c2)c1
4.6 µM

Fill in: GI50 of `NCCCNc1nc2ccccc2c2c(=O)c3cc(F)cc(Cl)c3sc12` is ___
1.45 µM

====

Test system: KM12 colon
TEST DESCRIPTION: NCI tumour cell line growth inhibition, 48 h
Recorded TGI for the following molecules

Example molecules with recorded TGI:
CC(=O)c1ccc(Oc2c3ccccc3nc3occc23)cc1
> 100 µM
CC1N=C(c2ccccc2)OC1=O (centres undefined)
> 100 µM
FC(F)(F)c1nc(Br)[nH]c1C(F)(F)F
> 100 µM
NC(=O)c1ncn2c(=O)n(CCCl)nnc12
408 µM
COc1cc(NCCC2CCCCN2)c2ncccc2c1OC (centres undefined)
33.5 µM

Entry O=C(O)CCC(NC(=O)c1ccc(Oc2nc3ccccc3nc2-c2ccccc2)cc1)C(=O)O (centres undefined) : reported TGI = ?
> 100 µM

Same thing, different molecule: O=C(NC(CCCCN1C(=O)c2ccccc2C1=O)P(=O)(Oc1ccccc1)Oc1ccccc1)OCc1ccccc1 (centres undefined)
> 100 µM

Try the molecule `CC(=O)[CH-]C(=O)c1ccccc1.CC(=O)[CH-]C(=O)c1ccccc1.CC(=O)[CH-]C(=O)c1ccccc1.[Br-].[Zr+4]`
> 100 µM

Ok, now CC(=O)OCC1=CC2CCC3C(C)(CCC[C@]3(C)COC(C)=O)C23CC[C@H]1C3 (some centres undefined)
> 100 µM

Request: `Cc1cnc2[nH]c(-c3ccc(Cl)cc3)cc(=O)c2c1`
> 100 µM

And for `Cc1nn(-c2ccccc2)c2nc(C)n(-c3ccc(Br)cc3)c(=O)c12` ?
> 100 µM

Next entry: `COc1cc2cnc3c4cc(OC)c(OC(C)C)cc4ccc3c2cc1OC`
> 100 µM

Same question, C=C1C(C(=O)O)C1C(=O)O (centres undefined) this time
> 100 µM

Please give the result for `CCCCC[C@H]1C/C=C2/C(=O)C(Cl)=C[C@@H]2C/C=C\CCCC(=O)O1` too.
1.33 µM
